// compounds with IC50 on UniProt P08581, multi-source literature

- compound: "CN1CCC(N(C)C(=O)c2cccc(-c3cnc(N)c(-c4nc5ccccc5s4)c3)c2)CC1"
  IC50: "100 to 1000 nM"
- compound: "CCOc1ccn(-c2ccc(F)cc2)c(=O)c1C(=O)Nc1ccc(Oc2ccnc3cc(OCCO)c4c(c23)OCCO4)c(F)c1"
  IC50: "≤ 50 nM"

**Query** Item: Clc1cccc(OC2CCNc3ncc(-c4cccc(N5CCOCC5)c4)cc32)c1 (centres unmarked) Test system: UniProt P08581 Read-out: IC50 Value: ?
**Result** 10000 to 100000 nM

**Query** Observed IC50 on UniProt P08581 for O=C(O)c1ccc(-c2cnc3c(c2)N(Cc2cc(Cl)ccc2C(F)(F)F)CCN3)cc1 , please.
**Result** 1000 to 10000 nM

**Query** API: value(readout= IC50, system= UniProt P08581, query= O=C(Cc1cccc(O)c1)N1CCC(c2ccc(F)cc2)=N1 )
**Result** 330 nM

**Query** Notebook entry, UniProt P08581 assay: IC50 of Oc1cccc(-c2cnc3[nH]cc(-c4ccc(O)c(F)c4)c3c2)c1 = ?
**Result** < 1000 nM

**Query** Form field: IC50 recorded for CCOC(=O)Nc1cccc(Cn2nc(-c3cccc(CNC(=O)CCN4CCNCC4)c3)ccc2=O)c1 with UniProt P08581 (enter value)
**Result** 10 to 1000 nM

**Query** I'm curious: which IC50 was measured for COc1ccc(-c2ccc3nnc(C(C)c4ccc5nc(NC(=O)C6CC6)cn5n4)n3c2)cc1C (centres unmarked) tested on UniProt P08581?
**Result** < 30 nM
